# System: Saccharomyces cerevisiae BY4741 SeMeCo community
# protocol_text: z-score of subpopulation abundance vs DMSO median, subpopulation auxotrophic for LUM; higher = larger share of this subpopulation than in DMSO controls
# test_settings: 10 µM; 24 h; SM minimal medium; subpopulation (auxotrophy): LUM
Where a name gives a salt, the structure may show the parent alone.
Entries and their z-score of subpopulation abundance values follow.
property: z-score of subpopulation abundance

1) CN(C)c1ccc(O)c2c1C[C@H]1C[C@H]3[C@H](N(C)C)C(=O)C(C(N)=O)=C(O)[C@@]3(O)C(=O)C1=C2O [Minocycline HCl] : 0.3
2) Cc1cc(=O)n(-c2ccccc2)n1C [Antipyrine] : 0.02
3) NC(=O)N/N=C/c1ccc([N+](=O)[O-])o1 : -0.73
4) COc1ccc2cc(CCC(C)=O)ccc2c1 : -0.43
5) CC1CCc2c(N3CCC(O)CC3)c(F)cc3c(=O)c(C(=O)O)cn1c23 (stereo not given) : 0.27
6) Cc1cnc(NC(=O)C2=C(O)c3ccccc3S(=O)(=O)N2C)s1 : -1.43
7) CN1C2CCCC1CC(NC(=O)c1nn(C)c3ccccc13)C2 (stereo not given) [Granisetron HCl] : 0.06
8) C#C[C@]1(O)CC[C@H]2[C@@H]3CCC4=CCCC[C@@H]4[C@H]3CC[C@@]21C : -0.41
9) C(=C\c1ccccc1)/CN1CCN(C(c2ccccc2)c2ccccc2)CC1 : 0.8
10) Cc1ccc(Sc2ccccc2N2CCNCC2)c(C)c1 : -0.73
11) CCOC(=O)C1=C(COCCN)NC(C)=C(C(=O)OC)C1c1ccccc1Cl (stereo not given) [Amlodipine] : -4.72
12) CCCCN(CCCC)CC(O)c1cc(Cl)cc2c1-c1ccc(Cl)cc1/C2=C/c1ccc(Cl)cc1 (stereo not given) : 0.62
13) CO/N=C(\C(=O)N[C@@H]1C(=O)N2C(C(=O)O)=CCS[C@H]12)c1csc(N)n1 [Ceftizoxime sodium] : -1.27
14) CC[C@H](C)[C@H](N)C1=N[C@H](C(=O)N[C@@H](CC(C)C)C(=O)N[C@H](CCC(=O)O)C(=O)N[C@H](C(=O)N[C@H]2CCCCNC(=O)[C@H](CC(N)=O)NC(=O)[C@@H](CC(=O)O)NC(=O)[C@H](Cc3cnc[nH]3)NC(=O)[C@@H](Cc3ccccc3)NC(=O)[C@H]([C@@H](C)CC)NC(=O)[C@@H](CCCN)NC2=O)[C@@H](C)CC)CS1 : 0.84
15) COc1ccc(-c2nc3cc(C4=NNC(=O)CC4C)ccc3[nH]2)cc1 (stereo not given) : 1.6

* * *

# System: Saccharomyces cerevisiae BY4741 SeMeCo community
# protocol_text: z-score of subpopulation abundance vs DMSO median, subpopulation auxotrophic for UM; higher = larger share of this subpopulation than in DMSO controls
# test_settings: 10 µM; 24 h; SM minimal medium; subpopulation (auxotrophy): UM
Structures can show the parent of a compound that is named as a salt.
Use -0.1 as the dividing line for z-score of subpopulation abundance, with the line itself on the Satisfied side and lower values as Not satisfied.

1) CN(C)CCCN1c2ccccc2Sc2ccc(Cl)cc21 [Chlorpromazine HCl] : Satisfied
2) CC1=C(C(=O)OC(C)C)C(c2cccc([N+](=O)[O-])c2)C(C(=O)OC2CN(C(c3ccccc3)c3ccccc3)C2)=C(N)N1 (stereo not given) [Azelnidipine] : Satisfied
3) O=C1CCc2cc(OCCCCc3nnnn3C3CCCCC3)ccc2N1 [Cilostazol] : Not satisfied
4) CCn1cc(C(=O)O)c(=O)c2cc(F)c(N3CCNCC3)cc21 [Norfloxacin] : Not satisfied
5) CCOc1ccc2nc3cc(N)ccc3c(N)c2c1 [Ethacridine lactate monohydrate] : Not satisfied
6) C=C[C@H]1CN2CC[C@H]1C[C@H]2[C@H](O)c1ccnc2ccc(OC)cc12 [Quinine HCl Dihydrate] : Satisfied
7) CCCCN1CCCC[C@H]1C(=O)Nc1c(C)cccc1C [Levobupivacaine HCl] : Not satisfied
8) CN1CCN(c2c(F)cc3c(=O)c(C(=O)O)cn4c3c2OCN4C)CC1 [Marbofloxacin] : Satisfied
9) CCCc1nn(C)c2c(=O)[nH]c(-c3cc(S(=O)(=O)N4CCN(C)CC4)ccc3OCC)nc12 [Sildenafil Mesylate] : Satisfied
10) NCC[C@H](O)C(=O)N[C@@H]1C[C@H](N)[C@@H](O[C@H]2O[C@H](CN)[C@@H](O)[C@H](O)[C@H]2O)[C@H](O)[C@H]1O[C@H]1O[C@H](CO)[C@@H](O)[C@H](N)[C@H]1O [Amikacin hydrate] : Not satisfied

* * *

# System: Saccharomyces cerevisiae BY4741 SeMeCo community
# protocol_text: z-score of subpopulation abundance vs DMSO median, subpopulation auxotrophic for LUM; higher = larger share of this subpopulation than in DMSO controls
# test_settings: 10 µM; 24 h; SM minimal medium; subpopulation (auxotrophy): LUM
Where a name gives a salt, the structure may show the parent alone.
The following compounds are listed with their measured z-score of subpopulation abundance values.
property: z-score of subpopulation abundance

1. O=C(O)C1=C(CSc2nnnn2CS(=O)(=O)O)CS[C@@H]2[C@H](NC(=O)[C@H](O)c3ccccc3)C(=O)N12 [Cefonicid sodium] : -0.25
2. O=C(O)CCCCCCCC(=O)O : -0.32
3. CCN(CC)CC#CCOC(=O)C(O)(c1ccccc1)C1CCCCC1 (stereo unspecified) [Oxybutynin chloride] : -0.46
4. Oc1c(I)cc(I)c2cccnc12 [Diiodohydroxyquinoline] : 2.87
5. CN(C)CCC=C1c2ccccc2C(C)(C)c2ccccc21 [Melitracen hydrochloride] : -0.83
6. COc1cc2c(cc1OC)[C@@H]1Cc3ccc(OC)c(OC)c3CN1CC2 : -0.04
7. Cc1cc(-n2c(=O)[nH]c(=O)n(C)c2=O)ccc1Oc1ccc(SC(F)(F)F)cc1 : -0.13
8. CN1CCN2c3ncccc3Cc3ccccc3C2C1 (stereo unspecified) : -0.74
9. Fc1ccc([C@@H]2CCNC[C@H]2COc2ccc3c(c2)OCO3)cc1 [Paroxetine mesylate] : -0.39
10. C=CC[C@@H]1/C=C(\C)C[C@H](C)C[C@H](OC)[C@H]2O[C@@](O)(C(=O)C(=O)N3CCCC[C@H]3C(=O)O[C@H](/C(C)=C/[C@@H]3CC[C@@H](O)[C@H](OC)C3)[C@H](C)[C@@H](O)CC1=O)[C@H](C)C[C@@H]2OC : 1.93
11. CN(C)c1cc(NC(=O)CNC(C)(C)C)c(O)c2c1CC1CC3C(N(C)C)C(=O)C(C(N)=O)=C(O)C3(O)C(=O)C1=C2O (stereo unspecified) : -0.85

* * *

# System: Saccharomyces cerevisiae BY4741 SeMeCo community
# protocol_text: z-score of subpopulation abundance vs DMSO median, subpopulation auxotrophic for HL; higher = larger share of this subpopulation than in DMSO controls
# test_settings: 10 µM; 24 h; SM minimal medium; subpopulation (auxotrophy): HL
Where a name gives a salt, the structure may show the parent alone.
Listed here are compounds together with their documented z-score of subpopulation abundance.
property: z-score of subpopulation abundance

1. NNc1nncc2ccccc12 [Hydralazine HCl] : -0.59
2. Cc1cc(C)nc(O)n1.O=C(Nc1ccc([N+](=O)[O-])cc1)Nc1ccc([N+](=O)[O-])cc1 [Nicarbazin] : -1.2
3. Cc1ccc(Nc2c(F)cccc2Cl)c(CC(=O)O)c1 [Lumiracoxib] : -0.22
4. CC[N+](C)(C)c1cccc(O)c1 [Edrophonium chloride] : -0.46
5. CCn1cc(C(=O)O)c(=O)c2cc(F)c(N3CCNCC3)nc21 [Enoxacin] : 0.3
6. O=C1CCc2cc(OCCCCc3nnnn3C3CCCCC3)ccc2N1 [Cilostazol] : -0.05
7. C[C@@H](O)[C@H]1C(=O)N2C(C(=O)O)=C(S[C@@H]3CN[C@H](C(=O)N(C)C)C3)[C@H](C)[C@H]12 [Meropenem Trihydrate] : 0.55
8. C1N2CN3CN1CN(C2)C3 [Methenamine] : -0.01
9. C[C@@H]1CC(=O)NN=C1c1ccc(NN=C(C#N)C#N)cc1 [Levosimendan] : -0.63
10. CO/N=C(\C(=O)N[C@@H]1C(=O)N2C(C(=O)O)=C(CSC(=O)c3ccco3)CS[C@H]12)c1csc(N)n1 [Ceftiofur] : 0.39
11. CC(=O)OCC1=C(C(=O)O)N2C(=O)C(NC(=O)CSC(=NC(C)C)NC(C)C)C2SC1 (stereo not given) [Cefathiamidine] : -1.06
12. CC[C@@H](CO)NCCN[C@@H](CC)CO [Ethambutol 2HCl] : 0.36
13. CC[C@H](C)C(=O)O[C@H]1C[C@@H](C)C=C2C=C[C@H](C)[C@H](CC[C@@H]3C[C@@H](O)CC(=O)O3)[C@H]21 [Lovastatin] : 0.97
14. O=C1C(CC[S+]([O-])c2ccccc2)C(=O)N(c2ccccc2)N1c1ccccc1 (racemic) [(+/-)-Sulfinpyrazone] : -0.17
15. OCCN1CCN(CCCN2c3ccccc3Sc3ccc(Cl)cc32)CC1 [Perphenazine] : 0.11
16. CCN[C@@H]1C[C@H](N)[C@@H](O[C@H]2OC(CN)=CC[C@H]2N)[C@H](O)[C@H]1O[C@H]1OC[C@](C)(O)[C@H](NC)[C@H]1O [Netilmicin Sulfate] : -0.24
17. CNS(=O)(=O)CCc1ccc2[nH]cc(C3CCN(C)CC3)c2c1 [Naratriptan HCl] : -0.28
18. CC1(C)S[C@@H]2[C@H](NC(=O)[C@H](NC(=O)N3CCNC3=O)c3ccccc3)C(=O)N2[C@H]1C(=O)O [Azlocillin sodium salt] : 0.33
19. Cc1noc(NS(=O)(=O)c2ccc(N)cc2)c1C [Sulfisoxazole] : 0.35
20. NS(=O)(=O)Cc1noc2ccccc12 [Zonisamide] : 0.85
